Source: the supplement of paper PMC9170038

Tested on: MS2 coat protein
experimental_protocol: apparent KD of MS2 coat protein; designed switch direction (-1 OFF switch, 1 ON switch): 1; higher = weaker reporter binding
condition_notes: input ligand: FMN 200 uM
measurement_label: apparent KD of MS2 coat protein (nM)
Provide only the numeric value, understood in nM.

// query Fill in the blank: the reported apparent KD of MS2 coat protein of AGUAGUUUAACAUGAGGAUCACCCAUGUAUCUAUCUGUAACCUAGGAUAUGGACGUUUUAUUUAACCAGAAGGAGGAUCGUUUA [JR_SSNG3_Sub045] (Eterna round: R96, puzzle: Same State NG 3) is ____.
// result 17.1

// query Fill in the blank: the reported apparent KD of MS2 coat protein of GUUACAUGAGGAUCACCCAUGUAUGUGUGGGAGUAAGUGUCUUAGGAUAUCUAAUAUUUAAAUUAAGAGAAGGAAGAUUGUUGU [JMF's solution 6] (Eterna round: R96, puzzle: Same State NG 3) is ____.
// result 112

// query Fill in the blank: the reported apparent KD of MS2 coat protein of AGCACGGGAUUGGAGGAUAUGUUGUUUGCAACAUGAGGAUCACCCAUGUCUGAGGCUGAAAAGCAGCAGAAGGCCGAUACAACCA [SS2-1.2] (Eterna round: R96, puzzle: Same State 2) is ____.
// result 60.1

----------
Test system: MS2 coat protein
experimental_protocol: apparent KD of MS2 coat protein; designed switch direction (-1 OFF switch, 1 ON switch): -1; higher = weaker reporter binding
condition_notes: input ligand: none
measurement_label: apparent KD of MS2 coat protein (nM)
Provide only the numeric value, understood in nM.

// query Fill in the blank: the reported apparent KD of MS2 coat protein of AAGCAGGUGUAGGCCGUCUACAUGAGGAUCACCCAUGUGCCUCAUCCACCCGGCACCCAAUAAAGCGGGCGCCGGGC [Teququ] (Eterna round: R96, puzzle: Sensor v2, turn-off variant) is ____.
// result 103

// query Fill in the blank: the reported apparent KD of MS2 coat protein of AUCGUGCAGCUUUGCUGUACGAGUACAUGAGGAUCACCCAUGUAGGAUAUGGUACGCUUUGCGUGCUAGAAGGAUAUGAGAUUA [EX ENG3 1.48] (Eterna round: R96, puzzle: Exclusion NG 3) is ____.
// result 31

// query Fill in the blank: the reported apparent KD of MS2 coat protein of GGGCUCACGGUCAGGAUAUGUAAAACGUAAGUAUUAUAGAAGGGACAUGAGGAUCACCCAUGUGUGAUGAGCGC [Eternabot (L1) Solution 37] (Eterna round: R97, puzzle: Brourd's mod of Exclusion 4) is ____.
// result 124

// query Fill in the blank: the reported apparent KD of MS2 coat protein of GUUCGUGGGCAAGGAUAUCCUACGCUGUUCUGGUUCGUGUCUGUCACAUGAGGAUCACCCAUGUGGGAGAAGGUGCAUUUGGGU [Design 57] (Eterna round: R96, puzzle: Exclusion NG 2) is ____.
// result 20.1

// query Fill in the blank: the reported apparent KD of MS2 coat protein of UGUUGUUACGCAGGAUAUGAGGAUCACCCAUAGUAGGAUAACGAAAGUGAAGGACUGAGGAUUACCCAGAAGGGCGGGUUAACA [pwkr exNG2 2xF5 2xFMN.3] (Eterna round: R96, puzzle: Exclusion NG 2) is ____.
// result 154
